# Test system: BCAT2 (Homo sapiens)
# Sequence (O15382 28-392): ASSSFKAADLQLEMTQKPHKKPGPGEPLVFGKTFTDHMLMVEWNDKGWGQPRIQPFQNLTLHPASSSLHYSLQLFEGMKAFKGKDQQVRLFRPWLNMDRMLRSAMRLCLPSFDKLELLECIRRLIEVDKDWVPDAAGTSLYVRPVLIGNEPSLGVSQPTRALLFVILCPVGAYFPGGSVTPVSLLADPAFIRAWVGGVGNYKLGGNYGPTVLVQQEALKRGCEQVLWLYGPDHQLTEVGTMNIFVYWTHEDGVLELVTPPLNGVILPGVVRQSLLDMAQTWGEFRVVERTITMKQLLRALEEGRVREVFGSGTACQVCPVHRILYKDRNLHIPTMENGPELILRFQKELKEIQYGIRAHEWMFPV
# Test description: BCAT2 in vitro enzyme inhibition assay (hBCAT2, glutamate dehydrogenase/diaphorase/resazurin coupled fluorescence read)
# Type: biochemical
# Condition label: hBCAT2, 1 h preincubation at 25° C., one hour reaction; average where tested multiple times
# Experimental: • 2×Buffer: 200 mM Tris pH 8.0, 300 mM NaCl, 0.1% BSA • 1.67×hBCAT2 Enzyme Mix: 0.33 μg/mL hBCAT2, 1× Buffer • 2.5×Substrate Mix: 460 µM L-leucine, 420 µM α-KetoGlutarate, 10 U/mL glutamate dehydrogenase, 10 mM NAD, […] diaphorase, […] Resazurin BCAT2 enzyme stock solution was diluted to prepare a 1.67×hBCAT2 Enzyme Mix. […] Reactions were quenched after one hour by the addition of 25 μL of 6% SDS and reaction progress was measured via fluorescence read (Ex 540/Em 590). […]

- Molecule: "CC(CCO)Cc1nc2cnc(-c3nc[nH]n3)cc2n1[C@@H]1CCC[C@H](NC(=O)c2cc(Cl)ccn2)C1 (some centres unmarked) [Example 95]"
  IC50: "> 1000 nM"
- Molecule: "CN1C[C@@H](NC(=O)c2cc(Cl)ccn2)C[C@@H](n2c(-c3ncccc3F)nc3cnc(-c4nc[nH]n4)cc32)C1 [Example 131]"
  IC50: "> 1000 nM"
- Molecule: "O=C1c2cccc(F)c2CN1[C@H]1CCC[C@@H](n2c(-c3ccccc3F)nc3cnc(-c4nc[nH]n4)cc32)C1 [Example 177]"
  IC50: "< 100 nM"
- Molecule: "CCOc1ccc(Cl)cc1C(=O)N[C@H]1CCC[C@@H](n2c(-c3ccccn3)nc3cnc(-c4nc[nH]n4)cc32)C1 [Example 26]"
  IC50: "< 100 nM"
- Molecule: "CN1C[C@@H](NC(=O)c2cc(Cl)ccn2)C[C@@H](n2c(-c3ccccc3OCCO)nc3ccc(-c4ncccn4)cc32)C1 [Example 235]"
  IC50: "> 1000 nM"
- Molecule: "COc1ccc(Cl)cc1C(=O)N[C@H]1CCC[C@@H](n2c(-c3ccccc3F)nc3ccc(-c4nc[nH]n4)cc32)[C@@H]1O [Example 217]"
  IC50: "< 100 nM"
- Molecule: "O=C1c2cc(F)ccc2CN1[C@H]1CCC[C@@H](n2c(-c3c(F)cccc3F)nc3cnc(-n4nccn4)cc32)[C@@H]1O [Example 186]"
  IC50: "< 100 nM"
- Molecule: "O=C(N[C@H]1CCC[C@@H](n2c(-c3ccccc3F)nc3cnc(-c4nc[nH]n4)cc32)C1)c1ccc(F)cc1F [Example 75]"
  IC50: "< 100 nM"
- Molecule: "O=C(N[C@H]1CCC[C@@H](n2c(-c3ccccc3F)nc3cnc(-c4nc[nH]n4)cc32)C1)c1cc(Cl)ccc1OC1CCOC1 (some centres unmarked) [Example 83]"
  IC50: "< 100 nM"
- Molecule: "O=C(N[C@H]1CCC[C@@H](n2c(-c3ncccc3OC(F)F)nc3cnc(-c4nc[nH]n4)cc32)C1)c1cc(Cl)ccn1 [compound 62]"
  IC50: "< 100 nM"
- Molecule: "O=C(N[C@H]1CCC[C@@H](n2c(-c3ccccn3)nc3cnc(-c4nc[nH]n4)cc32)C1)c1cc(Cl)ccn1 [Example 25]"
  IC50: "< 100 nM"
- Molecule: "COc1cccc(F)c1C(=O)N[C@H]1CCC[C@@H](n2c(-c3ccccc3F)nc3cnc(-c4nc[nH]n4)cc32)C1 [Example 2]"
  IC50: "< 100 nM"
- Molecule: "CN1C[C@H](NC(=O)c2cc(Cl)ccn2)C[C@H](n2c(-c3ccccc3OC(F)F)nc3cnc(-c4nc[nH]n4)cc32)C1 [compound 141]"
  IC50: "< 100 nM"
- Molecule: "CN1C[C@H](NC(=O)c2cc(Cl)ccn2)C[C@H](n2c(-c3ccccc3OCCO)nc3cnc(-n4nccn4)cc32)C1 [Example 157]"
  IC50: "< 100 nM"
- Molecule: "CN1C[C@@H](NC(=O)c2cc(F)ccn2)C[C@@H](n2c(-c3ccccc3OC(F)F)nc3cnc(-c4nc[nH]n4)cc32)C1 [compound 140]"
  IC50: "500 to 1000 nM"
- Molecule: "CO[C@H]1C[C@H](NC(=O)c2cc(F)ccc2F)C[C@H](n2c(-c3ccccc3F)nc3cnc(-c4nc[nH]n4)cc32)C1 [Example 122]"
  IC50: "< 100 nM"
- Molecule: "COc1ccc(Cl)cc1C(=O)N[C@@H]1CCCC[C@H](n2c(-c3c(F)cccc3OC)nc3cnc(-c4nc[nH]n4)cc32)[C@H]1O [Example 109]"
  IC50: "500 to 1000 nM"
